Test system: Wild type
assayDetails: S. aureus survival, RN4220 and DeltatarO strains – OD600, teichoic acid synthesis inhibitors, primary screen (AID 463173)
conditionInfo: S. aureus RN4220 wild type/DeltatarO growth, OD600, 18 h, active compounds read low, screened at 18.75 µg/mL (by protocol)
In all, about 52,000 compounds went through this assay and about 1,700 (3.3%) were called active. This is one part of a sample in which actives are shown more often than they occur.
Checkbox rule: survival lower than 80% = Y; survival not lower than 80% = N.

Please let me know if "O=C(Cn1c(=O)n(-c2ccccc2)c(=O)c2sc3ccccc3c21)NC1CCCC1" shows survival below 80%. N

Please let me know if "NNC(=O)CCC(=O)Nc1ccccc1" shows survival below 80%. N

Please let me know if "O=C(CCSCc1ccccc1Cl)N1CCN(c2cccc(Cl)c2)CC1" shows survival below 80%. Y

Please let me know if "Cc1cccc(CS(=O)(=O)c2ncc(Cl)c(C(=O)NCc3ccccc3)n2)c1" shows survival below 80%. Y

Please let me know if "O=C(Nc1nc2ccc(F)cc2s1)c1nc(S(=O)(=O)Cc2ccccc2)ncc1Cl" shows survival below 80%. Y

Please let me know if O=C(Nc1cccc(Cl)c1)C1CCCN(c2ncnc3c2nc2n3CCCCC2)C1 (stereo unspecified) shows survival below 80%. Y

Please let me know if "CCN(Cc1ccccc1)C(=O)Cn1cc(S(=O)(=O)Cc2cccc(Cl)c2)c2ccccc21" shows survival below 80%. Y

Please let me know if CCOc1ccc(C2C(=O)N(C3CCCCC3)CC(=O)N2CCc2ccccc2)cc1OC (stereo unspecified) shows survival below 80%. N

Please let me know if "COc1ccc(NC(=O)c2c(C(=O)Nc3ccccc3)sc3nc(C)cc(=O)n23)cc1" shows survival below 80%. N

Please let me know if "COC(=O)c1cc2oc3ccccc3c2n1CC(=O)Nc1ccc(C)cc1C" shows survival below 80%. N

Please let me know if "Cc1cccc(CS(=O)(=O)c2ncc(Cl)c(C(=O)Nc3nc4ccc(F)cc4s3)n2)c1" shows survival below 80%. Y

Please let me know if CC1CCCN(c2nc3nonc3nc2Nc2cccc(Cl)c2)C1 (stereo unspecified) shows survival below 80%. Y

Please let me know if "Cc1c(Cl)cccc1Nc1nn2c(=O)c3ccc(C(=O)NCCC4=CCCCC4)cc3nc2s1" shows survival below 80%. Y

Please let me know if "COc1cccc(Cn2c(CNS(=O)(=O)c3ccc(F)c(Cl)c3)nc3cccnc32)c1" shows survival below 80%. N

Please let me know if "CCOC(=O)c1ccc(CN(Cc2ccccc2)S(=O)(=O)c2ccc(Cl)cc2)cc1" shows survival below 80%. Y

Please let me know if "CCOc1ccc(NC(=O)NCCc2c(C)nn(C)c2C)cc1" shows survival below 80%. Y

Please let me know if "CC1CCN(S(=O)(=O)c2ccc3nc(N4CCN(c5ccc(F)cc5)CC4)ccc3c2)CC1" shows survival below 80%. N

Please let me know if CC1=C(C(=O)OC2CCCC2)C(c2cccc(Cl)c2Cl)CC(=O)N1 (stereo unspecified) shows survival below 80%. N

---

Tested on: Wild type
assayDetails: S. aureus survival, RN4220 and DeltatarO strains – OD600, teichoic acid synthesis inhibitors, primary screen (AID 463173)
conditionInfo: S. aureus RN4220 wild type/DeltatarO growth, OD600, 18 h, screened at 18.75 µg/mL (by protocol)
About 1,700 (3.3%) of roughly 52,000 compounds were called active. Cut-off read from the data, not from the text of the source: active = survival mostly below about 52% (no sharp cut-off); inactive = mostly above about 56%. This is one part of a sample in which actives are shown more often than they occur.
Please answer using one outcome listed in y (active), n (inactive)

Look up the recorded call for "CCOc1ccc(CCNC(=O)c2ccc3c(c2)nc2n3CCOC2)cc1OCC" in this test. n

Look up the recorded call for COCCn1c(C)nnc1SCC1CCCO1 (stereo unspecified) in this test. n

Look up the recorded call for "Cc1ccc(C)c(CNC(=O)c2ccc3c(c2)nc2n3CCOC2)c1" in this test. n

Look up the recorded call for "COc1cccc(Nc2nc3ccccc3c3nncn23)c1" in this test. n

Look up the recorded call for "N=c1nc(N)nc2n1NC(c1ccc(F)cc1)=CS2" in this test. n

Look up the recorded call for "O=C(CSc1nc2ccccc2c(=O)n1-c1ccccc1)N1CCOCC1" in this test. n

Look up the recorded call for "CCCCN(CCCNC(=O)c1cc(Nc2ccc(OC)c(OC)c2)nc2ccccc12)Cc1ccccc1" in this test. n

Look up the recorded call for "COc1cc2nc(C3CCC3)n(NC(=O)c3ccccc3C)c(=O)c2cc1OC" in this test. n

Look up the recorded call for "O=C(Nc1c(C(=O)N2CCN(c3ccccc3)CC2)oc2ccccc12)c1ccc(Br)o1" in this test. n

Look up the recorded call for "Cc1ccc(Nc2nc3ccccc3c3nncn23)cc1C" in this test. y

Look up the recorded call for "Cc1ccc(Cl)cc1Nc1nc2ccccc2c2nncn12" in this test. n
